# TARGET_OR_TEST_SYSTEM: GSK3b (GST-full length GSK3b) (Homo sapiens (Human), UniProt P49841)
# Sequence (P49841 whole entry): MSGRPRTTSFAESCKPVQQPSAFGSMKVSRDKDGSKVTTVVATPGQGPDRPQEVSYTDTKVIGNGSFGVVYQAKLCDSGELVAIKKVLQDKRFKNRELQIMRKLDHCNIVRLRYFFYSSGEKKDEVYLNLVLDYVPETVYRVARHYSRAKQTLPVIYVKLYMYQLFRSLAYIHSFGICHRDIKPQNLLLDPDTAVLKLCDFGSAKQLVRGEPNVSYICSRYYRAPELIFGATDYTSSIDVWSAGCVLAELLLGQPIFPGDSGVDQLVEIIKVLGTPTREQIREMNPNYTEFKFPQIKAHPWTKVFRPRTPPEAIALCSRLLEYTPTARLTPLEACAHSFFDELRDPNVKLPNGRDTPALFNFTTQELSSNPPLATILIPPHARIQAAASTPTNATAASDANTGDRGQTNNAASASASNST
# ASSAY_COMMENT: GSK3b TR-FRET kinase assay
# Type: biochemical
# PARTICULARS: 1 nM GSK3b, 2 μM ATP, 30 minute preincubation, Table 16; read-out: GSK3-B TR-FRET BIOCHEMICAL (TR-FRET); IC50
MEASURE: IC50

- MOLECULE: "CC[C@@]1(c2cccc(N(C)c3cncnc3)c2)C2=C(CC(C)(C)CC2=O)Nc2n[nH]cc21 [Compound 915400]"
  READING: "≤ 100 nM"
- MOLECULE: "CC1(C)CC(=O)C2=C(C1)Nc1n[nH]cc1C21CN(CC2CCOCC2)C1 [Compound 943545]"
  READING: "> 5000 nM"
- MOLECULE: "CCC1(c2cccc(C(F)(F)F)c2)C2=C(CCN(c3cn[nH]c3)C2=O)Nc2n[nH]cc21 (stereo not drawn) [Compound 950479]"
  READING: "100 to 1000 nM"
- MOLECULE: "CCC1(c2cccc(N(C)c3cc(C)nc(C)c3)c2)C2=C(CC(C)(C)CC2=O)Nc2n[nH]cc21 (stereo not drawn) [Compound 913256]"
  READING: "> 5000 nM"
- MOLECULE: "CC[C@@]1(c2cccc(-c3cnn(-c4ccccc4)c3F)c2)C2=C(CC(C)(C)NC2=O)Nc2n[nH]cc21 [Compound 949519]"
  READING: "> 5000 nM"

Ask: Requested field: IC50. Item: CC[C@@]1(c2cccc(C(F)(F)F)c2)C2=C(CC(C)(C)C2=O)Nc2n[nH]cc21 [Compound 950272]
Reply: 100 to 1000 nM

Ask: Requested field: IC50. Item: CCC1(c2cccc(N(C)c3cccnn3)c2)C2=C(CC(C)(C)CC2=O)Nc2n[nH]cc21 (stereo not drawn) [Compound 911975]
Reply: ≤ 100 nM

Ask: Requested field: IC50. Item: CCC1(c2cccc(-c3cnn4c3CCCC4)c2)C2=C(CC(C)(C)CC2=O)Nc2n[nH]c(C)c21 (stereo not drawn) [Compound 913033]
Reply: 1000 to 5000 nM

Ask: Requested field: IC50. Item: CCC1(c2cccc(N(C)c3cccc(OC)n3)c2)C2=C(CC(C)(C)CC2=O)Nc2n[nH]cc21 (stereo not drawn) [Compound 913121]
Reply: 100 to 1000 nM

Ask: Requested field: IC50. Item: CCC1(c2cccc(N(C)c3nccc(OC)n3)c2)C2=C(CC(C)(C)CC2=O)Nc2n[nH]cc21 (stereo not drawn) [Compound 929387]
Reply: ≤ 100 nM

Ask: Requested field: IC50. Item: CC[C@]1(c2cccc(C(C)C)c2)C2=C(CC(C)(C)NC2=O)Nc2n[nH]cc21 [Compound 949752]
Reply: > 5000 nM

Ask: Requested field: IC50. Item: CCC1(c2cccc(-c3cnn4c3CCCC4)c2)C2=C(CC(C)(C)CC2=O)Nc2n[nH]cc21 (stereo not drawn) [Compound 926836]
Reply: 100 to 1000 nM

Ask: Requested field: IC50. Item: CCC1(c2cccc(OC)c2)C2=C(CC(C)(C)NC2=O)Nc2n[nH]c(C(F)(F)F)c21 (stereo not drawn) [Compound 949748]
Reply: 100 to 1000 nM

Ask: Requested field: IC50. Item: CCC1(c2cccc(-c3cn(C)nc3C)c2)C2=C(CC3(CCS(=O)(=O)CC3)NC2=O)Nc2n[nH]cc21 (stereo not drawn) [Compound 950813]
Reply: 100 to 1000 nM

Ask: Requested field: IC50. Item: CCC1(c2cccc(-c3cnn4c3CCCC4)c2)C2=C(CC(C)(C)CC2=O)Nc2n[nH]c(C)c21 (stereo not drawn) [Compound 913036]
Reply: ≤ 100 nM

====

# key: entry, value: IC50
# TARGET_OR_TEST_SYSTEM: GSK3α (GST-full length GSK3α) (Homo sapiens (Human))
# Sequence (P49840 whole entry): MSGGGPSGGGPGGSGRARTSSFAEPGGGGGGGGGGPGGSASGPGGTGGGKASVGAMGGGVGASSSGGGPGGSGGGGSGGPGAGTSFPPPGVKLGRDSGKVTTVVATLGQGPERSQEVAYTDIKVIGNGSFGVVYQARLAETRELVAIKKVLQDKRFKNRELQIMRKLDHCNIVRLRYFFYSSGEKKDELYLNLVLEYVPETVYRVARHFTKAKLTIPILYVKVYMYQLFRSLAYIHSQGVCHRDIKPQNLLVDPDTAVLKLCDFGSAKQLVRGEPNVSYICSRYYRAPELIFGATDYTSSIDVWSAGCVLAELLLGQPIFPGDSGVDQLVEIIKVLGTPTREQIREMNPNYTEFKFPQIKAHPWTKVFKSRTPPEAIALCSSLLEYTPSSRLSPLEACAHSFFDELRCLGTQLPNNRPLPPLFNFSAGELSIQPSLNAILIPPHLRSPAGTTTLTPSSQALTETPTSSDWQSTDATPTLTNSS
# ASSAY_COMMENT: GSK3α TR-FRET kinase assay
# Assay type: biochemical
# PARTICULARS: 1 nM GSK3α, 4 μM ATP, 30 minute preincubation, Table 16; read-out: GSK3-A TR-FRET BIOCHEMICAL (TR-FRET)

Field: example entries. Status: answers known.
- COMPOUND: "CCC1(c2cccc(-c3ccnc(C)c3)c2)C2=C(Nc3n[nH]cc31)C(F)C(C)(C)CC2=O (centres unmarked) [Compound 946104]"
  IC50: "≤ 0.1 µM"
- COMPOUND: "Cc1cnn(C)c1S(=O)(=O)N1CCC2(CC1)C1=C(CC(C)(C)CC1=O)Nc1n[nH]cc12"
  IC50: "0.1 to 1 µM"
- COMPOUND: "CC[C@]1(c2ccccc2)C2=C(Nc3n[nH]cc31)[C@@H](F)C(C)(C)CC2=O"
  IC50: "> 5 µM"
- COMPOUND: "CC1(C)CC(=O)C2=C(C1)Nc1n[nH]cc1C21CCN(S(=O)(=O)c2ccc(F)cc2)CC1"
  IC50: "≤ 0.1 µM"
- COMPOUND: "COc1cccc(S(=O)(=O)N2CCC3(CC2)C2=C(CC(C)(C)CC2=O)Nc2n[nH]cc23)c1F"
  IC50: "≤ 0.1 µM"
- COMPOUND: "CC1(C)CC(=O)C2=C(C1)Nc1n[nH]cc1C21CCOC1 (centres unmarked)"
  IC50: "0.1 to 1 µM"
- COMPOUND: "CCC1(c2cccc(C(F)(F)F)c2)C2=C(CN(Cc3ccccc3)C2=O)Nc2n[nH]cc21 (centres unmarked)"
  IC50: "≤ 0.1 µM"
- COMPOUND: "CCC1(c2cccc(S(=O)(=O)C3CCOC3)c2)C2=C(CC(C)(C)CC2=O)Nc2n[nH]cc21 (centres unmarked)"
  IC50: "≤ 0.1 µM"

Ask: Requested field: IC50. Item: CC1(C)CC(=O)C2=C(C1)Nc1n[nH]cc1C21CN(c2ccccc2)C1
Reply: ≤ 0.1 µM

Ask: Requested field: IC50. Item: CCn1ccc(S(=O)(=O)N2CCC3(CC2)C2=C(CC(C)(C)CC2=O)Nc2n[nH]cc23)n1
Reply: ≤ 0.1 µM

Ask: Requested field: IC50. Item: CCC1(c2cccc(-c3cnn4c3CCCC4)c2)C2=C(CC(C)(C)CC2=O)Nc2n[nH]cc21 (centres unmarked) [Compound 945544]
Reply: 0.1 to 1 µM

Ask: Requested field: IC50. Item: CN(C)C(=O)c1ccc(S(=O)(=O)N2CCC3(CC2)C2=C(CC(C)(C)CC2=O)Nc2n[nH]cc23)cc1
Reply: ≤ 0.1 µM

Ask: Requested field: IC50. Item: COc1ccc(F)c(S(=O)(=O)N2CCC3(CC2)C2=C(CC(C)(C)CC2=O)Nc2n[nH]cc23)c1
Reply: ≤ 0.1 µM

Ask: Requested field: IC50. Item: CC1(C)CC(=O)C2=C(C1)Nc1n[nH]cc1[C@@]21CC[C@H](C(F)(F)F)C1
Reply: 0.1 to 1 µM

Ask: Requested field: IC50. Item: Cc1cc([C@H]2CC[C@]3(CC2)C2=C(CC(C)(C)CC2=O)Nc2n[nH]cc23)ccn1
Reply: ≤ 0.1 µM

Ask: Requested field: IC50. Item: CCC1(c2cccc(C(F)(F)C(F)(F)F)c2)C2=C(CC(C)(C)CC2=O)Nc2n[nH]cc21 (centres unmarked) [Compound 949268]
Reply: 1 to 5 µM

====

# TARGET_OR_TEST_SYSTEM: GSK3b (GST-full length GSK3b) (Homo sapiens (Human))
# ASSAY_COMMENT: GSK3b TR-FRET kinase assay
# Assay type: biochemical
# PARTICULARS: 1 nM GSK3b, 2 μM ATP, 30 minute preincubation, Table 16; read-out: GSK3-B TR-FRET BIOCHEMICAL (TR-FRET)
pIC50: −log10 of the molar value.
MEASURE: pIC50

Field: example entries. Status: answers known.
- COMPOUND: "CC1(C)CC(=O)C2=C(Nc3n[nH]cc3C23CCN(S(=O)(=O)c2ccccc2C(F)F)CC3)[C@@H]1F"
  pIC50: "6.00 to 7.00"
- COMPOUND: "CC1(C)CC(=O)C2=C(C1)Nc1n[nH]cc1[C@@]21CCN(S(=O)(=O)c2ccccc2)C1"
  pIC50: "≥ 7.00"
- COMPOUND: "CC1(C)CC(=O)C2=C(Nc3n[nH]cc3C23CCOCC3)[C@H]1F"
  pIC50: "5.30 to 6.00"
- COMPOUND: "CCC1(c2cccc(Cc3ncccc3C(F)(F)F)c2)C2=C(CC(C)(C)CC2=O)Nc2n[nH]cc21 (stereo not shown)"
  pIC50: "6.00 to 7.00"
- COMPOUND: "CC[C@@]1(c2ccccc2)C2=C(C[C@]3(CCN(C)C3=O)CC2=O)Nc2n[nH]cc21"
  pIC50: "< 5.30"
- COMPOUND: "CCC1(c2cccc(-c3ccnc4c3CCC4)c2)C2=C(CC(C)(C)CC2=O)Nc2n[nH]cc21 (stereo not shown) [Compound 945606]"
  pIC50: "6.00 to 7.00"

Ask: Requested field: pIC50. Item: CC1(C)CC(=O)C2=C(C1)Nc1n[nH]cc1C21CCN(S(=O)(=O)c2cccc(OC(F)F)c2)CC1
Reply: ≥ 7.00
